Test system: MCF7
TEST_DETAILS: Cytotoxicity against estrogen receptor-positive human MCF7 cells assessed as inhibition of cell proliferation at 5 ug/ml after 24 hrs by MTT assay
Format: functional
MEASUREMENT_CONDITIONS: MCF7, 24 h
// reported inhibition at 5 µg/mL per item
The answer is to be given in %; state only the numeric part.

COMPOUND | UNIT_INFO | inhibition at 5 µg/mL
COc1ccc(C2C(C#N)=C(N)Oc3c2c(C)nn3-c2ccccc2)cc1 (configuration not stated) | % | 4.19
Cc1[nH]nc2c1C(c1c(F)c(F)c(F)c(F)c1F)C(C#N)=C(N)O2 (configuration not stated) | % | 6.96
Cc1nn(-c2ccccc2)c2c1C(c1ccc(O)cc1)C(C#N)=C(N)O2 (configuration not stated) | % | 5.96
Cc1[nH]nc2c1C(c1cccc(Oc3ccccc3)c1)C(C#N)=C(N)O2 (configuration not stated) | % | 83.7

Sample Cc1[nH]nc2c1C(c1cccnc1)C(C#N)=C(N)O2 (configuration not stated) ; inhibition at 5 µg/mL observed: 10.1

GET /value?item= Cc1nn(-c2ccccc2)c2c1C1(C(=O)Nc3ccccc31)C(C#N)=C(N)O2 (configuration not stated) &field=inhibition at 5 µg/mL returns 26.6

compound Cc1nn(-c2ccccc2)c2c1C(c1ccc([N+](=O)[O-])cc1)C(C#N)=C(N)O2 (configuration not stated) , inhibition at 5 µg/mL observed: 12.5

###

Test system: Pseudomonas aeruginosa
TEST_DETAILS: Antibacterial activity against Pseudomonas aeruginosa after 18 to 24 hrs by broth microdilution method
Assay type: functional
Measured MIC of individual entries
Number in µg/mL, nothing else.

// known answers, use as guide
MOLECULE | MIC [µg/mL]
Cc1[nH]nc2c1C(c1cccc(Oc3nc(Cl)c(Cl)cc3Cl)c1)C(C#N)=C(N)O2 (centres undefined) | 6.25
Cc1[nH]nc2c1C(c1c(F)c(F)c(F)c(F)c1F)C(C#N)=C(N)O2 (centres undefined) | 1.56
Cc1nn(-c2ccccc2)c2c1C1(C(=O)Nc3ccccc31)C(C#N)=C(N)O2 (centres undefined) | 6.25

Briefly, MIC measured for Cc1n[nH]c2c1C(c1cccs1)C(C#N)=C(N)O2 (centres undefined) : 3.12

// field: MIC; key: O=C(O)c1cn(C2CC2)c2cc(N3CCNCC3)c(F)cc2c1=O [CIPROFLOXACIN] ; value = 1.56

###

This section presents compounds with their documented Activity values.
Tested on: Rattus norvegicus
TEST_DETAILS: Antiinflammatory activity in Wistar rat assessed as protection against carrageenan-induced paw edema at 100 mg/kg, po administered 1 hr before carrageenan challenge measured after 4 hrs
Format: functional
Numbers only here, please. The scale is %.

COMPOUND | Activity (%)
Cc1nn(-c2ccccc2)c2c1C1(C(=O)Nc3ccccc31)C(C#N)=C(N)O2 (stereo unspecified) | 47.2
Cc1[nH]nc2c1C(c1cccc(Oc3ccccc3)c1)C(C#N)=C(N)O2 (stereo unspecified) | 61.5
CC(C)Cc1ccc(C(C)C(=O)O)cc1 (stereo unspecified) | 64.4

Item: Cc1n[nH]c2c1C(c1cccs1)C(C#N)=C(N)O2 (stereo unspecified) | System: Rattus norvegicus | Activity: 51.6

COc1ccc(C2C(C#N)=C(N)Oc3c2c(C)nn3-c2ccccc2)cc1 (stereo unspecified) on Rattus norvegicus gives Activity = 45

The recorded Activity with Rattus norvegicus for Cc1nn(-c2ccccc2)c2c1C(c1ccccc1)C(C#N)=C(N)O2 (stereo unspecified) was 48.3

Entry Cc1[nH]nc2c1C1(C(=O)Nc3ccccc31)C(C#N)=C(N)O2 (stereo unspecified) , Rattus norvegicus data, Activity value: 51.6

I looked up CC1=NN=C2OC(N)=C(C#N)C(c3ccc(Oc4nc(Cl)c(Cl)cc4Cl)cc3)C12 (stereo unspecified) and its Activity for Rattus norvegicus was 54.9

###

Tested on: MCF7
TEST_DETAILS: Cytotoxicity against estrogen receptor-positive human MCF7 cells assessed as inhibition of cell proliferation at 10 ug/ml after 24 hrs by MTT assay
Type: functional
MEASUREMENT_CONDITIONS: MCF7, 24 h
REPORTED_ENDPOINT: inhibition at 10 µg/mL
Your reply should be a number followed by the unit it is expressed in.

MOLECULE | TARGET_OR_TEST_SYSTEM | RECORDED_MEASUREMENT
Cc1[nH]nc2c1C1(C(=O)Nc3ccccc31)C(C#N)=C(N)O2 (stereo not given) | MCF7 | 0.51%
Cc1[nH]nc2c1C(c1ccc(C3C(C#N)=C(N)Oc4n[nH]c(C)c43)cc1)C(C#N)=C(N)O2 (stereo not given) | MCF7 | 24.4%

Query Cc1nn(-c2ccccc2)c2c1C(c1ccc(O)cc1)C(C#N)=C(N)O2 (stereo not given) yields inhibition at 10 µg/mL of 22.9%

Quick note, inhibition at 10 µg/mL for Cc1[nH]nc2c1C(c1c(F)c(F)c(F)c(F)c1F)C(C#N)=C(N)O2 (stereo not given) landed at 16.2%

inhibition at 10 µg/mL measured on Cc1[nH]nc2c1C(c1cccnc1)C(C#N)=C(N)O2 (stereo not given) = 16.3%

// inhibition at 10 µg/mL lookup, molecule = Cc1[nH]nc2c1C(c1cccc(Oc3nc(Cl)c(Cl)cc3Cl)c1)C(C#N)=C(N)O2 (stereo not given) , result: 34.6%

###

Parameter inhibition at 5 µg/mL: see the listing below.
Tested on: MCF7
TEST_DETAILS: Cytotoxicity against estrogen receptor-positive human MCF7 cells assessed as inhibition of cell proliferation at 5 ug/ml after 24 hrs by MTT assay
Format: functional
MEASUREMENT_CONDITIONS: MCF7, 24 h
Lab book: enter the figure in %, no units written.

COMPOUND | REPORTED_ENDPOINT | RECORDED_MEASUREMENT
Cc1[nH]nc2c1C(c1ccc(C3C(C#N)=C(N)Oc4n[nH]c(C)c43)cc1)C(C#N)=C(N)O2 (stereo not given) | inhibition at 5 µg/mL | 23.4
Cc1[nH]nc2c1C1(C(=O)Nc3ccccc31)C(C#N)=C(N)O2 (stereo not given) | inhibition at 5 µg/mL | -3.16
Cc1n[nH]c2c1C(c1cccs1)C(C#N)=C(N)O2 (stereo not given) | inhibition at 5 µg/mL | 61.7
Cc1[nH]nc2c1C(c1cccc(Oc3nc(Cl)c(Cl)cc3Cl)c1)C(C#N)=C(N)O2 (stereo not given) | inhibition at 5 µg/mL | 16.3

Let's switch to this compound now.
Measured inhibition at 5 µg/mL of Cc1nn(-c2ccccc2)c2c1C(c1ccccc1)C(C#N)=C(N)O2 (stereo not given) : 22.4

###

System: Pseudomonas aeruginosa
TEST_DETAILS: Antibacterial activity against Pseudomonas aeruginosa after 18 to 24 hrs by broth microdilution method
Type: functional
Measured MIC, listed per entry.
Record the value in µg/mL, omitting the unit from your answer.

Here are 3 compounds together with their reported answers.
COMPOUND | TARGET_OR_TEST_SYSTEM | MIC / µg/mL
CC1=NN=C2OC(N)=C(C#N)C(c3ccc(Oc4nc(Cl)c(Cl)cc4Cl)cc3)C12 (centres undefined) | Pseudomonas aeruginosa | 3.12
Cc1nn(-c2ccccc2)c2c1C(c1cccc(Oc3nc(Cl)c(Cl)cc3Cl)c1)C(C#N)=C(N)O2 (centres undefined) | Pseudomonas aeruginosa | 6.25
Cc1nn(-c2ccccc2)c2c1C(c1ccc(O)cc1)C(C#N)=C(N)O2 (centres undefined) | Pseudomonas aeruginosa | 3.12

Record Cc1nn(-c2ccccc2)c2c1C(c1cccc(Oc3ccccc3)c1)C(C#N)=C(N)O2 (centres undefined) , field MIC: 3.12

###

Tested on: Rattus norvegicus
TEST_DETAILS: Antiinflammatory activity in Wistar rat assessed as protection against carrageenan-induced paw edema at 100 mg/kg, po administered 1 hr before carrageenan challenge measured after 4 hrs
Type: functional
In this section, each of the compounds is paired with its reported Activity.
Number plus unit, in that order.

Answered cases to consult:
COMPOUND | TARGET_OR_TEST_SYSTEM | RECORDED_MEASUREMENT
Cc1nn(-c2ccccc2)c2c1C1(C(C#N)=C(N)O2)c2ccccc2-c2ccccc21 | Rattus norvegicus | 56.6%
Cc1nn(-c2ccccc2)c2c1C(c1ccc(O)cc1)C(C#N)=C(N)O2 (stereo not drawn) | Rattus norvegicus | 50.5%

Next up:
In plain terms, Cc1[nH]nc2c1C(c1cccc(Oc3nc(Cl)c(Cl)cc3Cl)c1)C(C#N)=C(N)O2 (stereo not drawn) has a documented Activity of 53.8%

###

Tested on: MCF7
TEST_DETAILS: Cytotoxicity against estrogen receptor-positive human MCF7 cells assessed as inhibition of cell proliferation at 10 ug/ml after 24 hrs by MTT assay
Assay type: functional
MEASUREMENT_CONDITIONS: MCF7, 24 h
Recorded inhibition at 10 µg/mL, one value per entry.
Please reply with the bare figure in % and do not write the unit itself.

Guide cases for inhibition at 10 µg/mL, answers given:
MOLECULE | TARGET_OR_TEST_SYSTEM | RECORDED_MEASUREMENT
Cc1nn(-c2ccccc2)c2c1C(c1ccc([N+](=O)[O-])cc1)C(C#N)=C(N)O2 (centres undefined) | MCF7 | 30.8
Cc1nn(-c2ccccc2)c2c1C1(C(=O)Nc3ccccc31)C(C#N)=C(N)O2 (centres undefined) | MCF7 | 40.3
Cc1nn(-c2ccccc2)c2c1C(c1ccccc1)C(C#N)=C(N)O2 (centres undefined) | MCF7 | 26.9

Tested on MCF7, the item COc1ccc(C2C(C#N)=C(N)Oc3c2c(C)nn3-c2ccccc2)cc1 (centres undefined) showed inhibition at 10 µg/mL equal to 8.99

Data provenance is ChEMBL document CHEMBL2062449.
